Source of measurements: patent US11591329B2

The compounds below have reported IC50 for FGFR3 enzyme (Homo sapiens (Human)).

Tell me the measured IC50 of Cn1cc(-c2n[nH]c3ccc(N4CCCC(O)C4)nc23)cn1 (stereo not drawn) , please.
≥ 200 nM

Another compound to check: CC1C(=O)N(C2CC2)CCN1c1ccc2[nH]nc(-c3cnn(C)c3)c2n1 (stereo not drawn)
10 to 30 nM

Another compound to check: CCC1C(=O)N(C)CCN1c1ccc2[nH]nc(-c3cnn(C)c3)c2n1 (stereo not drawn)
< 10 nM

Another compound to check: CN1CCN(c2ccc3[nH]nc(-c4cnn(C)c4)c3n2)C(Cc2ccccc2)C1=O (stereo not drawn)
10 to 30 nM

Another compound to check: CC1CN(c2ccc3[nH]nc(-c4cnn(C)c4)c3n2)C(C)C(=O)N1C (stereo not drawn)
< 10 nM

Another compound to check: CC(C)C1C(=O)N(C)CCN1c1ccc2[nH]nc(-c3cnn(Cc4cccnc4)c3)c2n1 (stereo not drawn)
< 10 nM
